Tested on: CP237
Experiment: qHTS profiling for inhibitors of Plasmodium falciparum proliferation (AID 504749); further: nearly all actives have a fitted effect of over 60% in size
Conditions: P. falciparum in erythrocytes, SYBR Green DNA, 72 h; series mostly up to 28.7 µM
Results filed as inconclusive are left out. Active and inactive are the calls of the source. The call rests on the fitted dose curve; in most records, active means well fitted inhibition curve with a large enough effect; inconclusive means small, poorly fitted or top-dose-only effect; inactive means flat fitted curve, though single readings scatter.
Choose the fitting class; nothing outside T = active, F = inactive is accepted.

Answered cases to consult:
Task: Tell me the recorded outcome of this test for Cc1cn([C@H]2C=C[C@@H](CO)O2)c(=O)[nH]c1=O .
Output: F

Task: Tell me the recorded outcome of this test for NCCc1cnc[nH]1 .
Output: F

Task: Tell me the recorded outcome of this test for COC(=O)Nc1nc2ccc(C(=O)c3cccs3)cc2[nH]1 .
Output: F

Task: Tell me the recorded outcome of this test for CC(C)(C)C(=O)Oc1ccc(S(=O)(=O)Nc2ccccc2C(=O)NCC(=O)O)cc1 .
Output: F

Task: Tell me the recorded outcome of this test for CC(COc1ccccc1)N(CCCl)Cc1ccccc1 (centres undefined) .
Output: T

Further cases:
Task: Tell me the recorded outcome of this test for Cc1cc(C(C)(C)C)c(O)c(C)c1CC1=NCCN1 .
Output: F

Task: Tell me the recorded outcome of this test for CC(C)Cc1ccc(C(C)C(=O)O)cc1 (centres undefined) .
Output: F

Task: Tell me the recorded outcome of this test for COc1ccc2[nH]cc(CCNC(C)=O)c2c1 .
Output: F

Task: Tell me the recorded outcome of this test for NCCCCCC(=O)O .
Output: F

Task: Tell me the recorded outcome of this test for CCCNCC(O)COc1ccccc1C(=O)CCc1ccccc1 (centres undefined) .
Output: T

Task: Tell me the recorded outcome of this test for N[C@@H](Cc1c[nH]c2ccc(O)cc12)C(=O)O .
Output: F

Task: Tell me the recorded outcome of this test for CC(CCc1ccc(O)cc1)NCCc1ccc(O)c(O)c1 (centres undefined) .
Output: F

Task: Tell me the recorded outcome of this test for NC(=O)OCC(COC(N)=O)c1ccccc1 .
Output: F

Task: Tell me the recorded outcome of this test for Nc1nnc(-c2cccc(Cl)c2Cl)c(N)n1 .
Output: F

Task: Tell me the recorded outcome of this test for CN(C)C(=N)N=C(N)N .
Output: F

Task: Tell me the recorded outcome of this test for CC(C)NCC(O)COc1ccc(CCOCC2CC2)cc1 (centres undefined) .
Output: F

Task: Tell me the recorded outcome of this test for CN(Cc1cnc2nc(N)nc(N)c2n1)c1ccc(C(=O)N[C@@H](CCC(=O)O)C(=O)O)cc1 .
Output: T

Task: Tell me the recorded outcome of this test for NS(=O)(=O)c1cc2c(cc1Cl)NCNS2(=O)=O .
Output: F

Task: Tell me the recorded outcome of this test for CCOC(=O)Nc1ccc(NCc2ccc(F)cc2)nc1N .
Output: T

Task: Tell me the recorded outcome of this test for Cn1c(=O)c2[nH]cnc2n(C)c1=O .
Output: F

Task: Tell me the recorded outcome of this test for O=c1c(-c2ccc(O)cc2)coc2cc(O)cc(O)c12 .
Output: F

Task: Tell me the recorded outcome of this test for Nc1nc2c(ncn2COC(CO)CO)c(=O)[nH]1 .
Output: F

Task: Tell me the recorded outcome of this test for NC(=O)NO .
Output: F

Task: Tell me the recorded outcome of this test for CCOC(=O)C(C)(C)Oc1ccc(Cl)cc1 .
Output: F
